- STUDY_SYSTEM: ABL (Homo sapiens)
- Sequence (P00519 whole entry): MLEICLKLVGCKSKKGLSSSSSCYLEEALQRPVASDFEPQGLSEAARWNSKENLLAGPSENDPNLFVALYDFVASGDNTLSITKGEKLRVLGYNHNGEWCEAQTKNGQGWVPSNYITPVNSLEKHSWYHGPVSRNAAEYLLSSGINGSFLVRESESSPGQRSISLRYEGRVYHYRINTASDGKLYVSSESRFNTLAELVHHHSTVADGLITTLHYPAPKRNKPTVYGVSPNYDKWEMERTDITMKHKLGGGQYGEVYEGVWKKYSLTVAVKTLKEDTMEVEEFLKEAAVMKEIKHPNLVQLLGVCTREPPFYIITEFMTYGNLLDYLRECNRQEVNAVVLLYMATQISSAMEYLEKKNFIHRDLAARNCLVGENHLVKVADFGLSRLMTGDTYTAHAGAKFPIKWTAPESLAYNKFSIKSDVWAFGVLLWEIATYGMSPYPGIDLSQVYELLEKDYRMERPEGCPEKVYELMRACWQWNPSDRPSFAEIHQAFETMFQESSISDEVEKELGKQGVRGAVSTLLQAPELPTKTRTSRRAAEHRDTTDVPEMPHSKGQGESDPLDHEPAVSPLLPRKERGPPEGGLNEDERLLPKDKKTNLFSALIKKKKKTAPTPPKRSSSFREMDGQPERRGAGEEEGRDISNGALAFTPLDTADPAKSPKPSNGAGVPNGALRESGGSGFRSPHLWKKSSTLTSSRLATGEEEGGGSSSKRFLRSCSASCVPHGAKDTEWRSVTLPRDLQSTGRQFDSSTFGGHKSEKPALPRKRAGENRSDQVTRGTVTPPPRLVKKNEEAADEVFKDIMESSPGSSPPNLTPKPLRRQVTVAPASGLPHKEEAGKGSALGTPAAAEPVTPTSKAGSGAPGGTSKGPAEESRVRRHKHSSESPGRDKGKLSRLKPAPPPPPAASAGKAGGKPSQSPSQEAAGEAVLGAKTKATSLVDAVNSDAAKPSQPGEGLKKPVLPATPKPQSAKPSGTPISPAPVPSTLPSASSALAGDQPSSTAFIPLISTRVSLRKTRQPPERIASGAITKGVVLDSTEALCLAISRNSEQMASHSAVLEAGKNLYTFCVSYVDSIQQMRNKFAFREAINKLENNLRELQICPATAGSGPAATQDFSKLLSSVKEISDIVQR
- METHOD_SUMMARY: ABL Kinase Activity Assay (Elisa), ABL
- Type: biochemical
- RECORDED_CONDITIONS: ATP 100 μM, read-out: Abl Enzymetic assay (Elisa) % inhibition
QUANTITY_MEASURED: inhibition at 10 µM

Solved cases (3 shown):
Fc1ccccc1CCNc1ncc2c(n1)-c1cccnc1Nc1cnccc1-2 ... 80 to 100%
O[C@H]1CC[C@H](Nc2ncc3c(n2)-c2cccnc2Nc2cnccc2-3)CC1 ... 80 to 100%
Clc1ccc(CCNc2ncc3c(n2)-c2cccnc2Nc2cnccc2-3)cc1 ... 80 to 100%

stdin: Requested field: inhibition at 10 µM. Item: CCCCNc1ncc2c(n1)-c1cccnc1Nc1cnccc1-2
stdout: 80 to 100%

stdin: Requested field: inhibition at 10 µM. Item: CCCN1CCC(Nc2ncc3c(n2)-c2cccnc2Nc2cnccc2-3)CC1
stdout: 50 to 79%

stdin: Requested field: inhibition at 10 µM. Item: COc1cccc(CNc2ncc3c(n2)-c2cccnc2Nc2cnccc2-3)c1
stdout: 80 to 100%
